- tested target: BRG-1 (Homo sapiens)
- Construct: made in house; host or cells: High Five insect cells
- experimental details: ATPase catalytic activity of BRG-1, ADP-Glo in vitro biochemical assay
- protocol conditions: ATPase catalytic activity, ADP-Glo; 30 nM BRG-1, 400 μM ATP; read-out: BRG1 IC50
Checkbox rule: IC50 lower than 200 nM = true (1); IC50 not lower than 200 nM = false (0).

>  <molecule>
COc1cc(C(C)(F)F)ccc1-c1ccc2cnc(CNC(=O)c3ccc4c(c3)S(=O)(=O)CCOC4)cc2n1

>  <cat>
false (0)

$$$$

Q: Strictly below 200 nM in IC50? `O=C(NCc1cc2nc(N3CCOc4cc(C5CC5)ccc43)ccc2cn1)c1ccc2c(c1)S(=O)(=O)CCOC2`
Ans: true (1)

====

- tested target: BRM (Homo sapiens)
- Construct: made in house; host or cells: High Five insect cells
- Sequence (P51531 whole entry): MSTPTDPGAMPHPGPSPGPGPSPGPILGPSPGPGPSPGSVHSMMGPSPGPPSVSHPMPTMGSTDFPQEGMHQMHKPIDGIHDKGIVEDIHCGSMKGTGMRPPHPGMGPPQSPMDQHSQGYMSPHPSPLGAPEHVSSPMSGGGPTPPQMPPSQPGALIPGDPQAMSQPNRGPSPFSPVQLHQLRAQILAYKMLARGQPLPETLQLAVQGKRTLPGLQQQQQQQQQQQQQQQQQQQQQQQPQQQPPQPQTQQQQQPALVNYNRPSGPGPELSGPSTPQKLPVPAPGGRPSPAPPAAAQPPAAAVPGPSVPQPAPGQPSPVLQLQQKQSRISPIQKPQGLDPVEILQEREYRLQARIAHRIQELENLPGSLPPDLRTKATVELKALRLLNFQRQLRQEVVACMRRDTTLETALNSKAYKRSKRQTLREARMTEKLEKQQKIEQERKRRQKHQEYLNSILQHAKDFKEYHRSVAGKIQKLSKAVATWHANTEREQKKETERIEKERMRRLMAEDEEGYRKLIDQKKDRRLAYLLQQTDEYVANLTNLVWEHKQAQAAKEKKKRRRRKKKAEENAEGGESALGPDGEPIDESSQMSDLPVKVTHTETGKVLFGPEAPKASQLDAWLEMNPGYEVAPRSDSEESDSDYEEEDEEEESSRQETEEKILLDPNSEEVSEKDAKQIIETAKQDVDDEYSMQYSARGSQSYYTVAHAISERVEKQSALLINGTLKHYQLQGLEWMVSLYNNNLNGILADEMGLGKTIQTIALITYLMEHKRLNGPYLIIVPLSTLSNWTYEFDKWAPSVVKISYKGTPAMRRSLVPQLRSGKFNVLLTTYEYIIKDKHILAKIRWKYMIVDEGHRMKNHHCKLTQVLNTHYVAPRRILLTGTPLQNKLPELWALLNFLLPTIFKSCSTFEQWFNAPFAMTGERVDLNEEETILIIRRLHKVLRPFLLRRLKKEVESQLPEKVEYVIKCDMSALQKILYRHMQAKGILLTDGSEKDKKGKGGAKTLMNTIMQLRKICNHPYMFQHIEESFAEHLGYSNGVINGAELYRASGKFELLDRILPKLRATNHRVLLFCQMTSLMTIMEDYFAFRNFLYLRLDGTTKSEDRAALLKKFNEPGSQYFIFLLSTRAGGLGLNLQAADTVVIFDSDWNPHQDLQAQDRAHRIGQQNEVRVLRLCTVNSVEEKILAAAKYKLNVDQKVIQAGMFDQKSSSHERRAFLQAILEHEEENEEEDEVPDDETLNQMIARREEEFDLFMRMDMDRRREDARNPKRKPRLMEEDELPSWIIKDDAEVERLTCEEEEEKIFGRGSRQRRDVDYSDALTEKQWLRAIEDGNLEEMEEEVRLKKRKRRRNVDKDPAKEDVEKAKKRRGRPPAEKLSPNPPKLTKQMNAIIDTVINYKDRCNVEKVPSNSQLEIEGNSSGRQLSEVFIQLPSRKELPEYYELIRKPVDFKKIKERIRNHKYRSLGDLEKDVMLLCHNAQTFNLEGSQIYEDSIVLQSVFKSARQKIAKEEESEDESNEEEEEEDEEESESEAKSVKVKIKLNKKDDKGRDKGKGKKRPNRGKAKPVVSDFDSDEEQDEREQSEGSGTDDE
- experimental details: ATPase catalytic activity of BRM, ADP-Glo in vitro biochemical assay
- protocol conditions: ADP-Glo ATPase assay, 30 nM BRM, 400 μM ATP
Give IC50 for every item shown.
One number for each entry, in nM.

Solved entries:
>  <compound>
CS(=O)(=O)c1cc(C(=O)NCc2cc3nc(-c4cccc(N5CC[C@@H]6OCC[C@H]6C5)n4)ccc3cn2)ccc1Cl [Compound 99]

>  <endpoint result>
78.7

$$$$
>  <compound>
COc1ccc2c(c1F)N(c1ccc3cnc(CNC(=O)c4ccc5c(c4)S(=O)(=O)CCOC5)cc3n1)CCO2 [Compound 774]

>  <endpoint result>
12

$$$$
>  <compound>
[2H]C([2H])([2H])N(c1cccc(-c2ccc3cnc(CNC(=O)c4ccc5c(c4)S(=O)(=O)CCOC5)cc3n2)n1)C([2H])([2H])[2H] [Compound 291]

>  <endpoint result>
10.3

$$$$

Take each entry in turn and give its IC50.
1. Cc1cc2c(-c3ccc4cnc(CNC(=O)c5ccc6c(c5)S(=O)(=O)CCOC6)cc4n3)ccnc2n1C [Compound 146]
2. CS(=O)(=O)c1cc(C(=O)NCc2cc3nc(-c4cccc(N5CC[C@H]6COC[C@H]6C5)n4)ccc3cn2)ccc1Cl [Compound 76]
3. CN(c1cccc(-c2ccc3cnc(CNC(=O)c4ccc5c(c4)S(=O)(=O)CCOC5)cc3n2)n1)[C@@H]1CCOC1 [Compound 116]
4. O=C(NCc1cc2nc(-c3cccc(OC4CC(F)(F)C4)n3)ccc2cn1)c1ccc2c(c1)S(=O)(=O)CCOC2 [Compound 74]
5. CN(CC(F)F)c1cccc(-c2ccc3cnc(CNC(=O)c4ccc5c(c4)S(=O)(=O)CCOC5)cc3n2)n1 [Compound 115]
6. Cc1ccc2c(c1)OCCN2c1ccc2cnc(CNC(=O)c3cnc4c(c3)S(=O)(=O)[C@@H](C)COC4)cc2n1 [Compound 749]
7. O=C(NCc1cc2nc(N3CCOc4cc(C5(C(F)F)CC5)cnc43)ccc2cn1)c1ccc2c(c1)S(=O)(=O)CCOC2 [Compound 847]
8. CS(=O)(=O)c1cc(C(=O)NCc2cc3nc(-c4cncc(C5CC5)n4)ccc3cn2)ccc1C1CC1 [Compound 266]

Ans:
[15.3, 45.7, 22.6, 122, 23.5, 12.6, 19.4, 819]

====

- tested target: BRG-1 (Homo sapiens, UniProt P51532)
- Construct: made in house; host or cells: High Five insect cells
- Sequence (P51532 whole entry): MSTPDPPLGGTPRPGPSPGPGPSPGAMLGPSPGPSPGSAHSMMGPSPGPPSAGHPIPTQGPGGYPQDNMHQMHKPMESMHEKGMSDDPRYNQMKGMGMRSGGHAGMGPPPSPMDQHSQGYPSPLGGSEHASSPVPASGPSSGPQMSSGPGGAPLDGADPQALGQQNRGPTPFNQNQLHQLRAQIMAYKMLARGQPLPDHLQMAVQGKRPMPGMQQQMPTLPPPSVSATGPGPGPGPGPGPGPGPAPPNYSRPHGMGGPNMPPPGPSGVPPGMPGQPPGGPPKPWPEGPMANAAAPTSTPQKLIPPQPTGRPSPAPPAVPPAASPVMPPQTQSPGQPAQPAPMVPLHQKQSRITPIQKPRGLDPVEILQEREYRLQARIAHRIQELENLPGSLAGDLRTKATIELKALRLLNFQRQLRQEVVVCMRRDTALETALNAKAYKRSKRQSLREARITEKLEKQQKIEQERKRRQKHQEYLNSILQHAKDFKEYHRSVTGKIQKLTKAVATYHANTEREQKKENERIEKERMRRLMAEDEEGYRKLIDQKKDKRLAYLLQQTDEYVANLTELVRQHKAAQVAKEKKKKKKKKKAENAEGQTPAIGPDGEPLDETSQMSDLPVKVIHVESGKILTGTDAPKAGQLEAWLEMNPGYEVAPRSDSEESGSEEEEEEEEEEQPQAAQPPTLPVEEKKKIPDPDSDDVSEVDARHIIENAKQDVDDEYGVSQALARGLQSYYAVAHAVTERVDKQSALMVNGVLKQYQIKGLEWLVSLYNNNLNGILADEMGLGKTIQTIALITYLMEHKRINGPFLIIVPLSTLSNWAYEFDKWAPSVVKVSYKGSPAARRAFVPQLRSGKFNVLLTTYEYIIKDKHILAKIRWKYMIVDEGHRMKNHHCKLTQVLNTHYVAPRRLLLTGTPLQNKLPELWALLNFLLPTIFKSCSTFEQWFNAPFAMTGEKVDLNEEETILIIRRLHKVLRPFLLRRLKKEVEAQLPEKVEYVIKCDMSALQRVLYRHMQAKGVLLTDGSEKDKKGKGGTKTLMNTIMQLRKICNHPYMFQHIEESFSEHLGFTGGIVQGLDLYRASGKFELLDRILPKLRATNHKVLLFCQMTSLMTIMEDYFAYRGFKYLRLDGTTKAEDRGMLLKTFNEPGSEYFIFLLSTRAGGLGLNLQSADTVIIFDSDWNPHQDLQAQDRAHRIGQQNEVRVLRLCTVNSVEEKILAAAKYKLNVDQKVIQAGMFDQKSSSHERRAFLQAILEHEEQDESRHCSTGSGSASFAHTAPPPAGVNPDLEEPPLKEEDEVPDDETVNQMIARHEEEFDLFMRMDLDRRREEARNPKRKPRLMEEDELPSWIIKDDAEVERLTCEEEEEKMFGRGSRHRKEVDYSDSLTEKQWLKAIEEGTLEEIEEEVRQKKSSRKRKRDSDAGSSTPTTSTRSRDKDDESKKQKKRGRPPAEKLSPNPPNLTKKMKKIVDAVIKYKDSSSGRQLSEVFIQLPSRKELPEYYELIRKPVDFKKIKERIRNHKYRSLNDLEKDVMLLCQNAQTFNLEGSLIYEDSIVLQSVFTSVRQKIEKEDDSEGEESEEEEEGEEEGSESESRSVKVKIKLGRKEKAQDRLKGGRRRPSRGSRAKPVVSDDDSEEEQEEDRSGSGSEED
- experimental details: ATPase catalytic activity of BRG-1, ADP-Glo in vitro biochemical assay
- protocol conditions: ATPase catalytic activity, ADP-Glo; 30 nM BRG-1, 400 μM ATP; read-out: BRG1 IC50
Give pIC50 for every item shown.
Numbers only, as −log10 of the molar value.

Solved entries:
>  <compound>
Cc1cc(C(=O)NCc2cc3nc(-c4cccc(N5C[C@@H](C)O[C@@H](C)C5)n4)ccc3cn2)cc2c1COCCS2(=O)=O [Compound 354]

>  <pIC50>
6.38

$$$$
>  <compound>
O=C(NCc1cc2nc(-c3cccc(N(C4CCOCC4)C4CC4)n3)ccc2cn1)c1ccc2c(c1)S(=O)(=O)CCOC2 [Compound 398]

>  <pIC50>
6.04

$$$$
>  <compound>
COC1CCS(=O)(=O)c2cc(C(=O)NCc3cc4nc(-c5cccc(N6C[C@@H](C)O[C@@H](C)C6)n5)ccc4cn3)ccc2C1 (stereo partly shown) [Compound 344]

>  <pIC50>
7.69

$$$$
>  <compound>
Cc1cc(C(=O)NCc2cc3nc(-c4cccc(N5C[C@@H](C)O[C@@H](C)C5)n4)ccc3cn2)cc2c1COC[C@H](C)S2(=O)=O [Compound 457]

>  <pIC50>
7.32

$$$$
>  <compound>
C[C@@H]1CN(c2cccc(-c3ccc4cnc(CNC(=O)c5cc(F)c6c(c5)S(=O)(=O)CC[C@H](C)O6)cc4n3)n2)C[C@H](C)O1 [Compound 495]

>  <pIC50>
6.01

$$$$
>  <compound>
CC[C@@H]1CCS(=O)(=O)c2cc(C(=O)NCc3cc4nc(-c5cccc(N6C[C@@H](C)O[C@@H](C)C6)n5)ccc4cn3)ccc2O1 [Compound 580]

>  <pIC50>
5.75

$$$$

Take each entry in turn and give its pIC50.
1. COC[C@H]1C[C@@H]1c1cccc(-c2ccc3cnc(CNC(=O)c4ccc5c(c4)S(=O)(=O)CCOC5)cc3n2)n1 [Compound 369]
2. COCCn1cc2cccc(-c3ccc4cnc(CNC(=O)c5ccc6c(c5)S(=O)(=O)CCOC6)cc4n3)c2n1 [Compound 701]
3. CN(C)c1cnc2c(c1)CCCN2c1ccc2cnc(CNC(=O)c3ccc4c(c3)S(=O)(=O)CCOC4)cc2n1 [Compound 441]
4. CO[C@@H]1CCN(c2cccc(-c3ccc4cnc(CNC(=O)c5ccc6c(c5)S(=O)(=O)CCOC6)cc4n3)n2)C[C@@H]1C [Compound 438]
5. Cc1cnc2c(c1)OCCN2c1ccc2cnc(CNC(=O)c3cc(F)c4c(c3)S(=O)(=O)CCOC4)cc2n1 [Compound 550]
6. C[C@@H]1CN(c2cccc(-c3ccc4cnc(CNC(=O)c5ccc6c(c5)S(=O)(=O)CCO[C@@H]6C5CC5)cc4n3)n2)C[C@H](C)O1 [Compound 454]
7. CC1CN(c2cccc(-c3ccc4cnc(CNC(=O)c5cnc6c(c5)S(=O)(=O)C(C)CC6)cc4n3)n2)CC(C)O1 (stereo not shown) [Compound 597]

Ans:
6.38
6.06
7.00
6.45
7.19
6.67
6.32

====

Give IC50 for every item shown.
- tested target: BRG-1 (Homo sapiens)
- Construct: made in house; host or cells: High Five insect cells
- experimental details: ATPase catalytic activity of BRG-1, ADP-Glo in vitro biochemical assay
- protocol conditions: ATPase catalytic activity, ADP-Glo; 30 nM BRG-1, 400 μM ATP; read-out: BRG1 IC50
Answer with the value and then the unit.

>  <compound>
COc1nc(C(F)F)ccc1-c1ccc2cnc(CNC(=O)c3cc(F)c4c(c3)S(=O)(=O)CCOC4)cc2n1 [Compound 404]

>  <endpoint>
IC50

>  <endpoint result>
142 nM

$$$$
>  <compound>
O=C(NCc1cc2nc(N3CCCc4ccc(C5CCCO5)nc43)ccc2cn1)c1ccc2c(c1)S(=O)(=O)CCOC2 (stereo not drawn) [Compound 659]

>  <endpoint>
IC50

>  <endpoint result>
1040 nM

$$$$
>  <compound>
O=C(NCc1cc2nc(-c3ccc(C(F)F)cc3OC3CC3)ccc2cn1)c1ccc2c(c1)S(=O)(=O)CCOC2 [Compound 357]

>  <endpoint>
IC50

>  <endpoint result>
293 nM

$$$$
>  <compound>
CO[C@H]1CCN(c2cccc(-c3ccc4cnc(CNC(=O)c5ccc6c(c5)S(=O)(=O)CCOC6)cc4n3)n2)C[C@H]1C [Compound 437]

>  <endpoint>
IC50

>  <endpoint result>
292 nM

$$$$
>  <compound>
COc1cnc2c(c1C)CCCN2c1ccc2cnc(CNC(=O)c3ccc4c(c3)S(=O)(=O)CCOC4)cc2n1 [Compound 637]

>  <endpoint>
IC50

>  <endpoint result>
207 nM

$$$$

Take each entry in turn and give its IC50.
1. COc1nc(C)ccc1-c1ccc2cnc(CNC(=O)c3ccc4c(c3)S(=O)(=O)[C@@H](C)COC4)cc2n1 [Compound 411]
2. C[C@@H]1CN(c2cccc(-c3ccc4cnc(CNC(=O)c5cnc6c(c5)S(=O)(=O)CCC5CC65)cc4n3)n2)C[C@H](C)O1 (mixture of isomers) [Compound 528]
3. Cc1cnc2c(c1)CCCN2c1ccc2cnc(CNC(=O)c3ccc4c(c3)S(=O)(=O)[C@@H](C)COC4)cc2n1 [Compound 396]
4. O=C(NCc1cc2nc(-c3ccc(Cl)c(OC(F)F)n3)ccc2cn1)c1ccc2c(c1)S(=O)(=O)CCOC2 [Compound 327]
5. C[C@H]1CCc2ccc(-c3ccc4cnc(CNC(=O)c5ccc6c(c5)S(=O)(=O)CCOC6)cc4n3)nc2N1C [Compound 468]

Ans:
["275 nM", "33.6 nM", "104 nM", "291 nM", "191 nM"]

Take each entry in turn and give its IC50.
1. O=C(NCc1cc2nc(N3CCOc4ccc(C(F)(F)F)nc43)ccc2cn1)c1ccc2c(c1)S(=O)(=O)CCOC2 [Compound 583]
2. Cc1ccc2c(n1)N(c1ccc3cnc(CNC(=O)c4ccc5c(c4)S(=O)(=O)CCOC5)cc3n1)CCN2C [Compound 593]
3. O=C(NCc1cc2nc(-c3cccc(N(CC4COC4)C4CC4)n3)ccc2cn1)c1ccc2c(c1)S(=O)(=O)CCOC2 [Compound 428]

Ans:
["1890 nM", "2190 nM", "324 nM"]

Take each entry in turn and give its IC50.
1. Cc1cnc2c(c1)CCN2c1ccc2cnc(CNC(=O)c3ccc4c(c3)S(=O)(=O)CCOC4)cc2n1 [Compound 656]
2. O=C(NCc1cc2nc(N3CCCc4ccc(Cl)cc43)ccc2cn1)c1ccc2c(c1)S(=O)(=O)CCOC2 [Compound 533]

Ans:
["128 nM", "91.4 nM"]

Take each entry in turn and give its IC50.
1. COC[C@@H]1CCc2ccc(-c3ccc4cnc(CNC(=O)c5ccc6c(c5)S(=O)(=O)CCOC6)cc4n3)nc2N1C [Compound 476]
2. COC[C@H]1C[C@@H](N(C)c2cccc(-c3ccc4cnc(CNC(=O)c5ccc6c(c5)S(=O)(=O)CCOC6)cc4n3)n2)C1 [Compound 436]
3. COCCN1CCCOc2c(-c3ccc4cnc(CNC(=O)c5ccc6c(c5)S(=O)(=O)CCOC6)cc4n3)cccc21 [Compound 313]
4. CCc1cnc2c(c1)OCCN2c1ccc2cnc(CNC(=O)c3ccc4c(c3)S(=O)(=O)CCOC4)cc2n1 [Compound 665]
5. O=C(NCc1cc2nc(N3CCCc4c(OC5COC5)cccc43)ccc2cn1)c1ccc2c(c1)S(=O)(=O)CCOC2 [Compound 555]
6. CO[C@H]1CCS(=O)(=O)c2cc(C(=O)NCc3cc4nc(-c5cccc(N6C[C@@H](C)O[C@@H](C)C6)n5)ccc4cn3)ccc2C1 [Compound 444]

Ans:
["36.6 nM", "226 nM", "387 nM", "86.8 nM", "25 nM", "27.5 nM"]

The reported numbers originate from patent US20230416248A1.
